experiment: Pharmacokinetic evaluation after inhalation/intragastric administration to rats
Assay type: in vivo, SD rats
conditionDetails: male, SD, rat, plasma, po, intragastric, 10 mg/kg
Description: Eight healthy male SD rats, weighing 223-252 g, were fed with standard formula granule feed of rats on time every day. The rats were fasted for 16 h before the experiment, and were refeeded at 4 h after the administration. […] Then 50 μL was accurately measured, added with 10 μL internal standard solution to vortex and mixed, then added with 200 μL methanol, and mixed in high speed vortex mixer for 3 min, centrifuged for 10 min (4° C., 13000 rpm). […]
measurementLabel: AUC(0-t) (ng·h/mL)
Numbers only; they are read as ng·h/mL.

What does the data say about its AUC(0-t)? Entry: CC1(C)[C@@H](O[C@H]2O[C@H](C(=O)[O-])[C@@H](O)[C@H](O)[C@H]2O[C@@H]2O[C@H](C(=O)[O-])[C@@H](O)[C@H](O)[C@H]2O)CC[C@]2(C)[C@H]3C(=O)C=C4[C@H]5C[C@@](C)(C(=O)O)CC[C@]5(C)CC[C@@]4(C)[C@]3(C)CC[C@@H]12.[Mg+2] [magnesium isoglycyrrhizinate]
89.8

====

experiment: Pharmacokinetic evaluation after inhalation/intragastric administration to rats
Assay type: in vivo, SD rats
conditionDetails: male, SD, rat, plasma, inhaled, inhalation compared with intravenous administration (literature), read-out: Relative F %
measurementLabel: bioavailability (%)
Numbers only; they are read as %.

What does the data say about its bioavailability? Entry: CC1(C)[C@@H](O[C@H]2O[C@H](C(=O)[O-])[C@@H](O)[C@H](O)[C@H]2O[C@@H]2O[C@H](C(=O)[O-])[C@@H](O)[C@H](O)[C@H]2O)CC[C@]2(C)[C@H]3C(=O)C=C4[C@H]5C[C@@](C)(C(=O)O)CC[C@]5(C)CC[C@@]4(C)[C@]3(C)CC[C@@H]12.[Mg+2] [magnesium isoglycyrrhizinate]
87

====

experiment: Pharmacokinetic evaluation after inhalation/intragastric administration to rats
Assay type: in vivo, SD rats
conditionDetails: male, SD, rat, plasma, inhaled or intranasal, inhalation, 2.4 mg/kg
measurementLabel: Tmax

What does the data say about its Tmax? Entry: CC1(C)[C@@H](O[C@H]2O[C@H](C(=O)[O-])[C@@H](O)[C@H](O)[C@H]2O[C@@H]2O[C@H](C(=O)[O-])[C@@H](O)[C@H](O)[C@H]2O)CC[C@]2(C)[C@H]3C(=O)C=C4[C@H]5C[C@@](C)(C(=O)O)CC[C@]5(C)CC[C@@]4(C)[C@]3(C)CC[C@@H]12.[Mg+2] [magnesium isoglycyrrhizinate]
48.6 min

====

experiment: Pharmacokinetic evaluation after inhalation/intragastric administration to rats
Format: in vivo, SD rats
conditionDetails: male, SD, rat, plasma, po, intragastric, 10 mg/kg
measurementLabel: Tmax
A bare number is not enough; add the unit after it.

What does the data say about its Tmax? Entry: CC1(C)[C@@H](O[C@H]2O[C@H](C(=O)[O-])[C@@H](O)[C@H](O)[C@H]2O[C@@H]2O[C@H](C(=O)[O-])[C@@H](O)[C@H](O)[C@H]2O)CC[C@]2(C)[C@H]3C(=O)C=C4[C@H]5C[C@@](C)(C(=O)O)CC[C@]5(C)CC[C@@]4(C)[C@]3(C)CC[C@@H]12.[Mg+2] [magnesium isoglycyrrhizinate]
1.75 h

====

experiment: Pharmacokinetic evaluation after inhalation/intragastric administration to rats
Assay type: in vivo, SD rats
conditionDetails: male, SD, rat, plasma, inhaled or intranasal, inhalation, 2.4 mg/kg
measurementLabel: AUC(0-inf) (ng·h/mL)
Numbers only; they are read as ng·h/mL.

What does the data say about its AUC(0-inf)? Entry: CC1(C)[C@@H](O[C@H]2O[C@H](C(=O)[O-])[C@@H](O)[C@H](O)[C@H]2O[C@@H]2O[C@H](C(=O)[O-])[C@@H](O)[C@H](O)[C@H]2O)CC[C@]2(C)[C@H]3C(=O)C=C4[C@H]5C[C@@](C)(C(=O)O)CC[C@]5(C)CC[C@@]4(C)[C@]3(C)CC[C@@H]12.[Mg+2] [magnesium isoglycyrrhizinate]
14600

====

experiment: Pharmacokinetic evaluation after inhalation/intragastric administration to rats
Assay type: in vivo, SD rats
conditionDetails: male, SD, rat, plasma, po, intragastric, 10 mg/kg, read-out: MRT(0-t)
measurementLabel: MRT last (h)
Numbers only; they are read as h.

What does the data say about its MRT last? Entry: CC1(C)[C@@H](O[C@H]2O[C@H](C(=O)[O-])[C@@H](O)[C@H](O)[C@H]2O[C@@H]2O[C@H](C(=O)[O-])[C@@H](O)[C@H](O)[C@H]2O)CC[C@]2(C)[C@H]3C(=O)C=C4[C@H]5C[C@@](C)(C(=O)O)CC[C@]5(C)CC[C@@]4(C)[C@]3(C)CC[C@@H]12.[Mg+2] [magnesium isoglycyrrhizinate]
2.35

====

experiment: Pharmacokinetic evaluation after inhalation/intragastric administration to rats
Type: in vivo, SD rats
conditionDetails: male, SD, rat, inhaled or intranasal, inhalation, liquid preparation for nebulizers 2.5 mg/mL, 200 μL, 2.4 mg/kg, plasma
measurementLabel: Cmax (ng/mL)
Numbers only; they are read as ng/mL.

What does the data say about its Cmax? Entry: CC1(C)[C@@H](O[C@H]2O[C@H](C(=O)[O-])[C@@H](O)[C@H](O)[C@H]2O[C@@H]2O[C@H](C(=O)[O-])[C@@H](O)[C@H](O)[C@H]2O)CC[C@]2(C)[C@H]3C(=O)C=C4[C@H]5C[C@@](C)(C(=O)O)CC[C@]5(C)CC[C@@]4(C)[C@]3(C)CC[C@@H]12.[Mg+2] [magnesium isoglycyrrhizinate]
3110

====

experiment: Pharmacokinetic evaluation after inhalation/intragastric administration to rats
Type: in vivo, SD rats
conditionDetails: male, SD, rat, plasma, po, intragastric, 10 mg/kg
measurementLabel: AUC(0-inf) (ng·h/mL)
Numbers only; they are read as ng·h/mL.

What does the data say about its AUC(0-inf)? Entry: CC1(C)[C@@H](O[C@H]2O[C@H](C(=O)[O-])[C@@H](O)[C@H](O)[C@H]2O[C@@H]2O[C@H](C(=O)[O-])[C@@H](O)[C@H](O)[C@H]2O)CC[C@]2(C)[C@H]3C(=O)C=C4[C@H]5C[C@@](C)(C(=O)O)CC[C@]5(C)CC[C@@]4(C)[C@]3(C)CC[C@@H]12.[Mg+2] [magnesium isoglycyrrhizinate]
102

====

experiment: Pharmacokinetic evaluation after inhalation/intragastric administration to rats
Type: in vivo, SD rats
conditionDetails: male, SD, rat, plasma, po, intragastric, 10 mg/kg, read-out: t½ z (converted)
measurementLabel: half-life (h)
Numbers only; they are read as h.

What does the data say about its half-life? Entry: CC1(C)[C@@H](O[C@H]2O[C@H](C(=O)[O-])[C@@H](O)[C@H](O)[C@H]2O[C@@H]2O[C@H](C(=O)[O-])[C@@H](O)[C@H](O)[C@H]2O)CC[C@]2(C)[C@H]3C(=O)C=C4[C@H]5C[C@@](C)(C(=O)O)CC[C@]5(C)CC[C@@]4(C)[C@]3(C)CC[C@@H]12.[Mg+2] [magnesium isoglycyrrhizinate]
1.88

====

experiment: Pharmacokinetic evaluation after inhalation/intragastric administration to rats
Assay type: in vivo, SD rats
conditionDetails: male, SD, rat, plasma, inhaled or intranasal, inhalation, 2.4 mg/kg, read-out: t½ z (converted)
measurementLabel: half-life (h)
Numbers only; they are read as h.

What does the data say about its half-life? Entry: CC1(C)[C@@H](O[C@H]2O[C@H](C(=O)[O-])[C@@H](O)[C@H](O)[C@H]2O[C@@H]2O[C@H](C(=O)[O-])[C@@H](O)[C@H](O)[C@H]2O)CC[C@]2(C)[C@H]3C(=O)C=C4[C@H]5C[C@@](C)(C(=O)O)CC[C@]5(C)CC[C@@]4(C)[C@]3(C)CC[C@@H]12.[Mg+2] [magnesium isoglycyrrhizinate]
2.13

====

experiment: Pharmacokinetic evaluation after inhalation/intragastric administration to rats
Assay type: in vivo, SD rats
conditionDetails: male, SD, rat, po, intragastric, 5.0 mg/mL, 10 mg/kg, plasma
measurementLabel: Cmax
A bare number is not enough; add the unit after it.

What does the data say about its Cmax? Entry: CC1(C)[C@@H](O[C@H]2O[C@H](C(=O)[O-])[C@@H](O)[C@H](O)[C@H]2O[C@@H]2O[C@H](C(=O)[O-])[C@@H](O)[C@H](O)[C@H]2O)CC[C@]2(C)[C@H]3C(=O)C=C4[C@H]5C[C@@](C)(C(=O)O)CC[C@]5(C)CC[C@@]4(C)[C@]3(C)CC[C@@H]12.[Mg+2] [magnesium isoglycyrrhizinate]
27.3 ng/mL

Cited source: patent US11534398B2
